Test system: Intestine
Assay: Drug level in small intestine of C57BL/6 mouse assessed as cis-4-((1-(5-(5-(trifluoromethyl)-1H-benzo[d]imidazol-2-yl)pyridin-2-yl)piperidin-4-yl)oxy)cyclohexanecarboxylic acid level at 10 mg/kg, po after 3 hrs
Format: ADME, organism-based
Design: dose 10 mg/kg, route oral
Settings: in vivo, read-out: Drug uptake
experimental readout: concentration (µM)
Quick reminder: number only, in µM, skip the unit.

Recorded concentration for `O=C(O)[C@H]1CC[C@H](OC2CCN(c3ccc(-c4nc5cc(C(F)(F)F)ccc5[nH]4)cn3)CC2)CC1` , please? 5.03

----------
Biological target: Diacylglycerol O-acyltransferase 1 (Mus musculus)
Sequence (Q9Z2A7 whole entry): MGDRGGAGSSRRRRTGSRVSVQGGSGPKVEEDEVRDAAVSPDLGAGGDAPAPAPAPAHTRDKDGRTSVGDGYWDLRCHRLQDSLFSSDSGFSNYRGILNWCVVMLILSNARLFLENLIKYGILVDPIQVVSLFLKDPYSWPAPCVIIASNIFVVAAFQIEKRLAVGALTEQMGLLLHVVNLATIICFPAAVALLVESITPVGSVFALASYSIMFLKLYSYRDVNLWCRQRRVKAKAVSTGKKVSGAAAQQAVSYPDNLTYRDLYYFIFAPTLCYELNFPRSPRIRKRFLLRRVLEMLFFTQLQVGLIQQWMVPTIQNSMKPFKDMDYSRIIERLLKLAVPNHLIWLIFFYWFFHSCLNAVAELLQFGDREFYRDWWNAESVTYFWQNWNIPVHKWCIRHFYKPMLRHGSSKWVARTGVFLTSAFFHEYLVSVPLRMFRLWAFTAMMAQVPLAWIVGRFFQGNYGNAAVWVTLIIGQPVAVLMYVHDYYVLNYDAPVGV
experimental readout: IC50 (nM)
Quick reminder: number only, in nM, skip the unit.

Recorded IC50 for `O=C(O)[C@H]1CC[C@H](OC2CCN(c3ccc(-c4nc5cc(C(F)(F)F)ccc5[nH]4)cn3)CC2)CC1` , please? 23

And the next one, `O=C(O)[C@H]1CC[C@H](OC2CCN(c3ccc(-c4nc5cc(F)ccc5[nH]4)cn3)CC2)CC1` ? 110

And the next one, `O=C(O)[C@H]1CC[C@@H](OC2CCN(c3ccc(-c4nc5cc(C(F)(F)F)ccc5[nH]4)cn3)CC2)CC1` ? 8
